# test.target: CYP2C9*3 (Homo sapiens, UniProt P11712, I359L/V490I)
# Construct: residues 1 to 23 (N-terminal transmembrane anchor) replaced with MAKKT, V490I, C-terminal four-histidine tag
# Sequence (P11712 24-490 I359L/V490I): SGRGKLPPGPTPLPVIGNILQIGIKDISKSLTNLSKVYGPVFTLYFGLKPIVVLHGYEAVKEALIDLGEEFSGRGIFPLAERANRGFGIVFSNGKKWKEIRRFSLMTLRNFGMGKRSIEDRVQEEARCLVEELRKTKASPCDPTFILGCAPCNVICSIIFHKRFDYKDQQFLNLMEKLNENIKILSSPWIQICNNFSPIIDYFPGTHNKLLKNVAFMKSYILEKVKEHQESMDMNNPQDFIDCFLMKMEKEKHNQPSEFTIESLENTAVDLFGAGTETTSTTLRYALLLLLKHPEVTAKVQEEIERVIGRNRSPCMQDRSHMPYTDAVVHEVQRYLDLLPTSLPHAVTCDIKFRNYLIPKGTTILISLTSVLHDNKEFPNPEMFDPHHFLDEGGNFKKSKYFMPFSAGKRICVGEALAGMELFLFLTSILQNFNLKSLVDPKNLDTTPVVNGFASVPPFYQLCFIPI
# run.description: ITC
# Format: binding
recorded.metric: Kd (µM)
Field: numeric (µM). Do not append units.

Data request: Bench note: what Kd did CCCCc1nc(Cl)c(CO)n1Cc1ccc(-c2ccccc2-c2nn[nH]n2)cc1 show?
Data returned: 24.5
